measurement-notes: Inhibition of hypoxia-induced HIF-1 transcriptional activity by luciferase reporter assay
measurement-kind: log10 of IC50 (log10 of the value in µM)

- cpd-smiles: "OCc1ccc(-c2nn(Cc3ccccc3)c3ccccc23)o1"
  recorded-value: 0.08
- cpd-smiles: "Cn1nc(-c2ccc(CO)o2)c2ccccc21"
  recorded-value: 0.95
- cpd-smiles: "CC(C)C(=O)OCc1ccc(-c2nn(Cc3ccccc3)c3ccccc23)o1"
  recorded-value: -0.13
- cpd-smiles: "NC(=O)c1ccc(-c2nn(Cc3ccccc3)c3ccccc23)o1"
  recorded-value: 1.08
- cpd-smiles: "CNCc1ccc(-c2nn(C)c3ccccc23)o1"
  recorded-value: 0.89
- cpd-smiles: "Cn1nc(-c2ccc(CN3CCCCC3)o2)c2ccccc21"
  recorded-value: 0.30
- cpd-smiles: "OCc1cc(-c2nn(Cc3ccccc3)c3ccccc23)on1"
  recorded-value: 1.38
- cpd-smiles: "CC(=O)OCc1ccc(-c2nn(Cc3ccccc3)c3ccccc23)o1"
  recorded-value: 0.36

* * *

measurement-notes: Inhibition of hypoxia-induced HIF-1 transcriptional activity by luciferase reporter assay
Sorting guide: entries reporting IC50 beneath 2 µM go in the rule met pile, the rest go in the rule not met pile.

- cpd-smiles: "COC(=O)c1ccc(-c2nn(Cc3ccccc3)c3ccccc23)o1"
  assigned-class: "rule met"
- cpd-smiles: "Cn1nc(-c2ccc(CN3CCOCC3)o2)c2ccccc21"
  assigned-class: "rule met"
- cpd-smiles: "Cn1nc(-c2ccc(CN)o2)c2ccccc21"
  assigned-class: "rule not met"
- cpd-smiles: "OCc1ccc(-c2[nH]nc3ccccc23)o1"
  assigned-class: "rule not met"
- cpd-smiles: "CC(C)(C)C(=O)OCc1ccc(-c2nn(Cc3ccccc3)c3ccccc23)o1"
  assigned-class: "rule met"
- cpd-smiles: "Cn1nc(-c2ncc(CO)s2)c2ccccc21"
  assigned-class: "rule not met"
- cpd-smiles: "OCc1cnc(-c2nn(Cc3ccccc3)c3ccccc23)s1"
  assigned-class: "rule not met"
- cpd-smiles: "CC(=O)OCc1ccc(-c2nn(C)c3ccccc23)o1"
  assigned-class: "rule not met"
- cpd-smiles: "CN(C)Cc1ccc(-c2nn(C)c3ccccc23)o1"
  assigned-class: "rule not met"
- cpd-smiles: "CC(=O)NCc1ccc(-c2nn(C)c3ccccc23)o1"
  assigned-class: "rule not met"
- cpd-smiles: "Cn1nc(-c2cc(CO)no2)c2ccccc21"
  assigned-class: "rule not met"
- cpd-smiles: "OCc1cnc(-c2nn(Cc3ccccc3)c3ccccc23)o1"
  assigned-class: "rule not met"

* * *

measurement-notes: Inhibition of hypoxia-induced HIF-1 transcriptional activity by luciferase reporter assay

- cpd-smiles: "O=S(=O)(c1ccccc1)n1nc(-c2ccc(CO)o2)c2ccccc21"
  IC50: "1.3 µM"
- cpd-smiles: "Cn1nc(-c2ccc(CN=[N+]=[N-])o2)c2ccccc21"
  IC50: "> 30 µM"
- cpd-smiles: "OCc1coc(-c2nn(Cc3ccccc3)c3ccccc23)n1"
  IC50: "> 30 µM"

Source: ChEMBL document CHEMBL1926629
